Tested on: a species of Lactobacillus
Assay: Effect on intestinal bacteria: number of a sp. of Lactobacillus in feces
Type: in vivo, ICR mice
Conditions: mouse, in vivo, po, 500 mg/kg/day
propertyName: Number of a sp. of Lactobacillus after the administration

Worked cases, Number of a sp. of Lactobacillus after the administration given:
compound	val
COC(=O)CNC(=O)c1ccc(NC(=O)C2=C(C)CSC3C(NC(=O)[C@H](N)c4ccccc4)C(=O)N23)cc1 (stereo partly shown)	8.9 Log10 (number of bacteria/g feces)
COC(=O)Cc1ccc(NC(=O)C2=C(COC(C)=O)CSC3C(NC(=O)CC#N)C(=O)N23)cc1 (stereo not shown)	9.1 Log10 (number of bacteria/g feces)
COC(=O)Cc1ccc(NC(=O)C2=C(C)CSC3C(NC(=O)[C@H](N)c4ccccc4)C(=O)N23)cc1 (stereo partly shown)	8.9 Log10 (number of bacteria/g feces)
CC(=O)OCC1=C(C(=O)Nc2ccc(C(N)=O)cn2)N2C(=O)C(NC(=O)CSc3ccncc3)C2SC1 (stereo not shown)	9.0 Log10 (number of bacteria/g feces)
COC(=O)Cc1ccc(NC(=O)C2=C(CSc3nnc(C)s3)CSC3C(NC(=O)Cn4cnnn4)C(=O)N23)cc1 (stereo not shown)	9.0 Log10 (number of bacteria/g feces)
COC(=O)c1ccc(NC(=O)C2=C(CSc3nnc(C)s3)CSC3C(NC(=O)Cn4cnnn4)C(=O)N23)cc1 (stereo not shown)	9.0 Log10 (number of bacteria/g feces)
Cc1nnc(SCC2=C(C(=O)O)N3C(=O)[C@@H](NC(=O)Cn4cnnn4)[C@H]3SC2)s1 [SODIUM CEFAZORIN, reference compound]	4.0 Log10 (number of bacteria/g feces)
Cc1nnc(SCC2=C(C(=O)Nc3ccc(C(N)=O)cn3)N3C(=O)C(NC(=O)Cn4cnnn4)C3SC2)s1 (stereo not shown)	9.0 Log10 (number of bacteria/g feces)

Take each entry in turn and give its Number of a sp. of Lactobacillus after the administration.
1. COC(=O)c1ccc(NC(=O)C2=C(COC(C)=O)CSC3C(NC(=O)CC#N)C(=O)N23)cc1 (stereo not shown)
2. CC(=O)OCC1=C(C(=O)Nc2ccc(C(N)=O)cn2)N2C(=O)C(NC(=O)CC#N)C2SC1 (stereo not shown)
3. COC(=O)CNC(=O)c1ccc(NC(=O)C2=C(CSc3nnc(C)s3)CSC3C(NC(=O)Cn4cnnn4)C(=O)N23)cc1 (stereo not shown)
4. COC(=O)Cc1ccc(NC(=O)C2=C(COC(C)=O)CSC3C(NC(=O)CSc4ccncc4)C(=O)N23)cc1 (stereo not shown)
5. Cc1ccc(NC(=O)C2=C(CSc3nnc(C)s3)CSC3C(NC(=O)Cn4cnnn4)C(=O)N23)cc1 (stereo not shown)

1: 9.0 Log10 (number of bacteria/g feces); 2: 9.1 Log10 (number of bacteria/g feces); 3: 9.1 Log10 (number of bacteria/g feces); 4: 9.0 Log10 (number of bacteria/g feces); 5: 9.2 Log10 (number of bacteria/g feces)

* * *

Test system: Escherichia coli
Assay: Effect on intestinal bacteria: number of Escherichia coli in feces
Format: in vivo, ICR mice
Conditions: after oral administration for 2 days, 500 mg/kg/day, female ICR mice; before: 6.4
propertyName: Number of Escherichia coli after the administration

Record excerpt, results attached:
compound	val
COC(=O)CNC(=O)c1ccc(NC(=O)C2=C(C)CSC3C(NC(=O)[C@H](N)c4ccccc4)C(=O)N23)cc1 (stereo partly drawn) [Example 5]	6.5 Log10 (number of bacteria/g feces)
COC(=O)CNC(=O)c1ccc(NC(=O)C2=C(COC(C)=O)CSC3C(NC(=O)CC#N)C(=O)N23)cc1 (stereo not drawn) [Example 9]	6.5 Log10 (number of bacteria/g feces)
COC(=O)Cc1ccc(NC(=O)C2=C(C)CSC3C(NC(=O)[C@H](N)c4ccccc4)C(=O)N23)cc1 (stereo partly drawn) [Example 4]	6.6 Log10 (number of bacteria/g feces)
Cc1nnc(SCC2=C(C(=O)NCCc3ccc(O)cc3)N3C(=O)C(NC(=O)Cn4cnnn4)C3SC2)s1 (stereo not drawn) [Example 17]	6.4 Log10 (number of bacteria/g feces)
Cc1nnc(SCC2=C(C(=O)Nc3ccc(C(=O)O)cc3)N3C(=O)C(NC(=O)Cn4cnnn4)C3SC2)s1 (stereo not drawn) [Example 12]	6.5 Log10 (number of bacteria/g feces)

Recorded Number of Escherichia coli after the administration for CC1=C(C(=O)O)N2C(=O)[C@@H](NC(=O)[C@H](N)c3ccccc3)[C@H]2SC1 [CEFALEXIN, reference compound] with Escherichia coli, please?
9.2 Log10 (number of bacteria/g feces)

* * *

System: a species of Streptococcus
Assay: Effect on intestinal bacteria: number of a sp. of Streptococcus in feces
Type: in vivo, ICR mice
Conditions: mouse, in vivo, po, 500 mg/kg/day
Record form. Attribute: Number of a sp. of Streptococcus after the administration. Fill in for each entry.

Consider the following illustrative entries.
compound	systemUnderTest	val
COC(=O)c1ccc(NC(=O)C2=C(CSc3nnc(C)s3)CSC3C(NC(=O)Cn4cnnn4)C(=O)N23)cc1 (stereo not drawn)	a species of Streptococcus	6.6 Log10 (number of bacteria/g feces)
Cc1ccc(NC(=O)C2=C(CSc3nnc(C)s3)CSC3C(NC(=O)Cn4cnnn4)C(=O)N23)cc1 (stereo not drawn)	a species of Streptococcus	6.5 Log10 (number of bacteria/g feces)
Cc1nnc(SCC2=C(C(=O)O)N3C(=O)[C@@H](NC(=O)Cn4cnnn4)[C@H]3SC2)s1 [SODIUM CEFAZORIN, reference compound]	a species of Streptococcus	8.6 Log10 (number of bacteria/g feces)
COC(=O)Cc1ccc(NC(=O)C2=C(COC(C)=O)CSC3C(NC(=O)CC#N)C(=O)N23)cc1 (stereo not drawn)	a species of Streptococcus	6.6 Log10 (number of bacteria/g feces)
Cc1nnc(SCC2=C(C(=O)Nc3ccc(C(=O)O)cc3)N3C(=O)C(NC(=O)Cn4cnnn4)C3SC2)s1 (stereo not drawn)	a species of Streptococcus	6.7 Log10 (number of bacteria/g feces)

State the recorded Number of a sp. of Streptococcus after the administration for every item in the following list.
1. COC(=O)CNC(=O)c1ccc(NC(=O)C2=C(CSc3nnc(C)s3)CSC3C(NC(=O)Cn4cnnn4)C(=O)N23)cc1 (stereo not drawn)
2. Cc1nnc(SCC2=C(C(=O)NCCc3ccc(O)cc3)N3C(=O)C(NC(=O)Cn4cnnn4)C3SC2)s1 (stereo not drawn)
3. COC(=O)c1ccc(NC(=O)C2=C(COC(C)=O)CSC3C(NC(=O)CSc4ccncc4)C(=O)N23)cc1 (stereo not drawn)

1. 6.8 Log10 (number of bacteria/g feces)
2. 6.9 Log10 (number of bacteria/g feces)
3. 6.7 Log10 (number of bacteria/g feces)

// for each compound in input: emit Number of a sp. of Streptococcus after the administration
1. COC(=O)CNC(=O)c1ccc(NC(=O)C2=C(COC(C)=O)CSC3C(NC(=O)CC#N)C(=O)N23)cc1 (stereo not drawn)
2. COC(=O)Cc1ccc(NC(=O)C2=C(C)CSC3C(NC(=O)[C@H](N)c4ccccc4)C(=O)N23)cc1 (stereo partly drawn)
3. COC(=O)Cc1ccc(NC(=O)C2=C(COC(C)=O)CSC3C(NC(=O)CSc4ccncc4)C(=O)N23)cc1 (stereo not drawn)
4. COC(=O)c1ccc(NC(=O)C2=C(COC(C)=O)CSC3C(NC(=O)CC#N)C(=O)N23)cc1 (stereo not drawn)
5. COC(=O)CNC(=O)c1ccc(NC(=O)C2=C(COC(C)=O)CSC3C(NC(=O)CSc4ccncc4)C(=O)N23)cc1 (stereo not drawn)
6. COC(=O)CNC(=O)c1ccc(NC(=O)C2=C(C)CSC3C(NC(=O)[C@H](N)c4ccccc4)C(=O)N23)cc1 (stereo partly drawn)

["6.7 Log10 (number of bacteria/g feces)", "6.8 Log10 (number of bacteria/g feces)", "6.6 Log10 (number of bacteria/g feces)", "6.7 Log10 (number of bacteria/g feces)", "6.7 Log10 (number of bacteria/g feces)", "6.7 Log10 (number of bacteria/g feces)"]

State the recorded Number of a sp. of Streptococcus after the administration for this entry: CC(=O)OCC1=C(C(=O)Nc2ccc(C)cc2)N2C(=O)C(NC(=O)CC#N)C2SC1 (stereo not drawn)
6.8 Log10 (number of bacteria/g feces)

* * *

Tested on: Lactobacillus bifidus
Assay: Effect on intestinal bacteria: number of Lactobacillus bifidus in feces
Assay type: in vivo, ICR mice
Conditions: mouse, in vivo, po, 500 mg/kg/day
propertyName: Number of Lactobacillus bifidus after the administration

Solved entries (count: 3):
molecule	val
CC(=O)OCC1=C(C(=O)O)N2C(=O)C(NC(=O)CC#N)C2SC1 (stereo not shown) [Compound X, reference compound]	6.0 Log10 (number of bacteria/g feces)
COC(=O)c1ccc(NC(=O)C2=C(COC(C)=O)CSC3C(NC(=O)CSc4ccncc4)C(=O)N23)cc1 (stereo not shown)	8.4 Log10 (number of bacteria/g feces)
CC(=O)OCC1=C(C(=O)Nc2ccc(C(N)=O)cn2)N2C(=O)C(NC(=O)CC#N)C2SC1 (stereo not shown)	8.2 Log10 (number of bacteria/g feces)

Please give Number of Lactobacillus bifidus after the administration for each item listed below.
1. COC(=O)CNC(=O)c1ccc(NC(=O)C2=C(CSc3nnc(C)s3)CSC3C(NC(=O)Cn4cnnn4)C(=O)N23)cc1 (stereo not shown)
2. Cc1nnc(SCC2=C(C(=O)Nc3ccc(C(=O)O)cc3)N3C(=O)C(NC(=O)Cn4cnnn4)C3SC2)s1 (stereo not shown)

1: 8.2 Log10 (number of bacteria/g feces); 2: 8.2 Log10 (number of bacteria/g feces)

Give measured Number of Lactobacillus bifidus after the administration for every item shown.
1. COC(=O)CNC(=O)c1ccc(NC(=O)C2=C(COC(C)=O)CSC3C(NC(=O)CSc4ccncc4)C(=O)N23)cc1 (stereo not shown)
2. Cc1ccc(NC(=O)C2=C(CSc3nnc(C)s3)CSC3C(NC(=O)Cn4cnnn4)C(=O)N23)cc1 (stereo not shown)

1: 8.5 Log10 (number of bacteria/g feces); 2: 8.3 Log10 (number of bacteria/g feces)
